List of AC50 tested on Histamine H3 receptor (Homo sapiens). Also: assay procedure not described here.
Sequence (Q9Y5N1 whole entry): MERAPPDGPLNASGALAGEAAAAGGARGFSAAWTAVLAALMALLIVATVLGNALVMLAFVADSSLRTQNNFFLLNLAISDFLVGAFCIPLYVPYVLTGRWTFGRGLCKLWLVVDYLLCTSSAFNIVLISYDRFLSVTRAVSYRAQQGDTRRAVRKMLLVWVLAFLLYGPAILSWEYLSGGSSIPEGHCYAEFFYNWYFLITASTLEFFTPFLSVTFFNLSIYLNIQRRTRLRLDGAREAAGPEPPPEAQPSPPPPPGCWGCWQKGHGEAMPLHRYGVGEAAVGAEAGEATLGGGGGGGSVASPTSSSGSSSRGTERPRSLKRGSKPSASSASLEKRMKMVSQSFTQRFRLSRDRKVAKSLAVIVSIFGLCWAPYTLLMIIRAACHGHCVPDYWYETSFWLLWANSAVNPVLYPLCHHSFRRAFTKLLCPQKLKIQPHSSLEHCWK

compound	AC50
CCCCC(CC)CN1CN(CC(CC)CCCC)CC(C)(N)C1 (centres undefined)	> 10 µM
COc1cc(C)c2c(Oc3cccc(C(F)(F)F)c3)c(OC)cc(NC(C)CCCN)c2n1 (centres undefined)	> 30 µM
CN[C@@H]1[C@H](O[C@H]2[C@H](O[C@H]3[C@H](O)[C@@H](O)[C@H](NC(=N)N)[C@@H](O)[C@@H]3NC(=N)N)O[C@@H](C)[C@]2(O)CO)O[C@@H](CO)[C@H](O)[C@H]1O [DIHYDROSTREPTOMYCIN]	> 30 µM
CCC1=C[C@@H]2CN(C1)Cc1c([nH]c3ccccc13)[C@@](C(=O)OC)(c1cc3c(cc1OC)N(C)[C@H]1[C@@](O)(C(=O)OC)[C@H](OC(C)=O)[C@]4(CC)C=CCN5CC[C@]31[C@@H]54)C2	> 30 µM

###

- experimental system: cGMP-inhibited 3',5'-cyclic phosphodiesterase 3A (Homo sapiens, UniProt Q14432); also: assay procedure not described here
- Sequence (Q14432 whole entry): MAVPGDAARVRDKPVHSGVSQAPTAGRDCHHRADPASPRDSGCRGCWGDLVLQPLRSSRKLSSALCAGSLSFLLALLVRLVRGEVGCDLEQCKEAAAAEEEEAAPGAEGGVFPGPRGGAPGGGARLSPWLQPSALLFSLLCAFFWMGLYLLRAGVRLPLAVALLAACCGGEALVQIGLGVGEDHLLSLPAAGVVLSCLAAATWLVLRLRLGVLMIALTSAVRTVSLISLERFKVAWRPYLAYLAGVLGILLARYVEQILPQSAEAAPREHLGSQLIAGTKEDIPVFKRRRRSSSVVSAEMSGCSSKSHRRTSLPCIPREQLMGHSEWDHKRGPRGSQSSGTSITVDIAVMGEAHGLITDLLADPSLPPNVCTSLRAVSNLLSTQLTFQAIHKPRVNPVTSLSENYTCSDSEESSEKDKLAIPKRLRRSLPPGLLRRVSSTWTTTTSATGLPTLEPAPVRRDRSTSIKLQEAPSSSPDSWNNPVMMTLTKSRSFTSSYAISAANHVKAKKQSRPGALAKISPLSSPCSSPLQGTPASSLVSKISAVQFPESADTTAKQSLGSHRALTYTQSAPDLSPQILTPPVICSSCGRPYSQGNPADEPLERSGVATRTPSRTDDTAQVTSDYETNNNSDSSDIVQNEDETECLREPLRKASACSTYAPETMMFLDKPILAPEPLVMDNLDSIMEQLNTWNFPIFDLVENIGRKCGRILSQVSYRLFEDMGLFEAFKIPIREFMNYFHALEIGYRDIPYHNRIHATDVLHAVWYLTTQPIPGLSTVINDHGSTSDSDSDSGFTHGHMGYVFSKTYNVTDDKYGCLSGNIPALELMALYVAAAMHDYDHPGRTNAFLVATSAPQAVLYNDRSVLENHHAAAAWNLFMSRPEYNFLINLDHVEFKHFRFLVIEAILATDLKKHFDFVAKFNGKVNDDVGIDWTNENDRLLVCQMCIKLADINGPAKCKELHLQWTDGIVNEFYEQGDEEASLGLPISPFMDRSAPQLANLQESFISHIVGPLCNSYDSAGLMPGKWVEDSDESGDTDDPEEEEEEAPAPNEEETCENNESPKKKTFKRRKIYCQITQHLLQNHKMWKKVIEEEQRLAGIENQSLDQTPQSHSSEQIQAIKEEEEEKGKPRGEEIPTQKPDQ
- Assay type: functional
Reported AC50 is given for each of the following compounds.
quantity kind: AC50

compound	experimental system	quantity kind	endpoint result
Cc1cn([C@H]2O[C@@H](CO)[C@H](O)[C@H]2F)c(=O)[nH]c1=O	cGMP-inhibited 3',5'-cyclic phosphodiesterase 3A (Homo sapiens, UniProt Q14432)	AC50	> 30 µM
CC(C)C[C@H](NC(=O)[C@@H](O)[C@H](N)Cc1ccccc1)C(=O)O	cGMP-inhibited 3',5'-cyclic phosphodiesterase 3A (Homo sapiens, UniProt Q14432)	AC50	> 30 µM
Cc1ccc(C)c(OCCCC(C)(C)C(=O)O)c1	cGMP-inhibited 3',5'-cyclic phosphodiesterase 3A (Homo sapiens, UniProt Q14432)	AC50	> 30 µM
CC1(CCN2CCCCC2)C(=O)CCc2ccccc21 (stereo not drawn) [NEPINALONE]	cGMP-inhibited 3',5'-cyclic phosphodiesterase 3A (Homo sapiens, UniProt Q14432)	AC50	> 30 µM
Cc1ccc(C(=O)c2ccc(CC(=O)O)n2C)cc1	cGMP-inhibited 3',5'-cyclic phosphodiesterase 3A (Homo sapiens, UniProt Q14432)	AC50	> 30 µM
COC(=O)[C@H]1[C@H]2C[C@@H]3c4[nH]c5cc(OC)ccc5c4CCN3C[C@H]2C[C@@H](OC(=O)c2cc(OC)c(OC)c(OC)c2)[C@@H]1OC	cGMP-inhibited 3',5'-cyclic phosphodiesterase 3A (Homo sapiens, UniProt Q14432)	AC50	> 3 µM
C[N+](C)(C)CCOP(=O)(O)OP(=O)([O-])OC[C@H]1O[C@@H](n2ccc(N)nc2=O)[C@H](O)[C@@H]1O	cGMP-inhibited 3',5'-cyclic phosphodiesterase 3A (Homo sapiens, UniProt Q14432)	AC50	> 30 µM
CC(=O)OCC(=O)[C@@]1(O)CC[C@H]2[C@@H]3CCC4=CC(=O)CC[C@]4(C)[C@H]3[C@@H](O)C[C@@]21C [HYDROCORTISONE ACETATE]	cGMP-inhibited 3',5'-cyclic phosphodiesterase 3A (Homo sapiens, UniProt Q14432)	AC50	> 30 µM

###

- experimental system: Alpha-1A adrenergic receptor (Homo sapiens); also: assay procedure not described here
- Sequence (P35348 whole entry): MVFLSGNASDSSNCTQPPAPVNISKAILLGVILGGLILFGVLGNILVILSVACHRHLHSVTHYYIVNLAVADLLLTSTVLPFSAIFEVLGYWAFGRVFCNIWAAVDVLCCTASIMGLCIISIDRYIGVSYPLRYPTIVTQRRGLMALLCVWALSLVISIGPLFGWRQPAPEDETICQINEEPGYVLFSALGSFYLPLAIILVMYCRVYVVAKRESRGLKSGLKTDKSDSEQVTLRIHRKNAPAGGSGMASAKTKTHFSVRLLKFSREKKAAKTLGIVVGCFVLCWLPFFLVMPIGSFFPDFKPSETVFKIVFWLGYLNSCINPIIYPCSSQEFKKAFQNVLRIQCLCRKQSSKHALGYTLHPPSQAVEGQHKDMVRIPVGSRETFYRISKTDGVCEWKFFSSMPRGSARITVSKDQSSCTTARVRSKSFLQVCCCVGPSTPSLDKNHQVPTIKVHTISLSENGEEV
- Format: functional, cell-based

compound	AC50
CCCCC1C(=O)N(c2ccccc2)N(c2ccc(O)cc2)C1=O (centres undefined) [OXYPHENBUTAZONE ANHYDROUS]	> 30 µM
CC(C)(C)NC(=O)N[C@H](C(=O)N1C[C@H]2[C@@H]([C@H]1C(=O)NC(CC1CCC1)C(=O)C(N)=O)C2(C)C)C(C)(C)C (some centres undefined)	> 30 µM
Cc1ncc2c(c1O)COC2c1ccc(Cl)cc1 (centres undefined)	> 30 µM
COC(=O)C[C@](O)(CCCC(C)(C)O)C(=O)O[C@@H]1C(OC)=C[C@]23CCCN2CCc2cc4c(cc2[C@H]13)OCO4 [OMACETAXINE MEPESUCCINATE]	> 30 µM
O=C(O)COCCN1CCN(C(c2ccccc2)c2ccc(Cl)cc2)CC1 (centres undefined)	> 30 µM
O=C(O)Cc1ccccc1Oc1ccc(Cl)cc1Cl	> 30 µM
Cc1ccsc1C(=CCCN1CCC[C@@H](C(=O)O)C1)c1sccc1C	> 30 µM
C[C@H](CCC(=O)O)[C@H]1CC[C@H]2[C@@H]3[C@H](O)C[C@@H]4C[C@H](O)CC[C@]4(C)[C@H]3C[C@H](O)[C@]12C	> 30 µM
Cc1ccc(S(=O)(=O)NC(=O)NC2CCCCC2)cc1 [GLYCYCLAMIDE]	> 30 µM
C[C@H]1CN(C[C@H](Cc2ccccc2)C(=O)NCC(=O)O)CC[C@@]1(C)c1cccc(O)c1	> 30 µM
Nc1cccc2c1C(=O)N(C1CCC(=O)NC1=O)C2=O (centres undefined) [POMALIDOMIDE]	> 30 µM
N#Cc1ccc(Oc2ccc3c(c2)COB3O)cc1	4.32 µM
CC(=O)OCC(=O)[C@@]1(O)CC[C@H]2[C@@H]3CCC4=CC(=O)CC[C@]4(C)[C@H]3[C@@H](O)C[C@@]21C [HYDROCORTISONE ACETATE]	> 30 µM
C[N+](C)(C)CCOP(=O)(O)OP(=O)([O-])OC[C@H]1O[C@@H](n2ccc(N)nc2=O)[C@H](O)[C@@H]1O	> 30 µM
CC(O)(P(=O)(O)O)P(=O)(O)O	> 30 µM
COC(=O)[C@H]1[C@H]2C[C@@H]3c4[nH]c5cc(OC)ccc5c4CCN3C[C@H]2C[C@@H](OC(=O)c2cc(OC)c(OC)c(OC)c2)[C@@H]1OC	> 30 µM
Cc1ccc(C(=O)C(C)CN2CCCCC2)cc1 (centres undefined)	> 30 µM
CC(=O)OC[C@H]1O[C@@H](n2ncc(=O)[nH]c2=O)[C@H](OC(C)=O)[C@@H]1OC(C)=O	> 30 µM
CC(=O)[C@H]1CC[C@H]2[C@@H]3C=CC4=CC(=O)CC[C@@]4(C)[C@@H]3CC[C@]12C	29.2 µM
O=C(O)[C@@H]1C[C@@H](O)CN1	> 30 µM
CC1(C)O[C@@H]2C[C@H]3[C@@H]4C[C@H](F)C5=CC(=O)C=C[C@]5(C)[C@@]4(F)[C@@H](O)C[C@]3(C)[C@]2(C(=O)CO)O1 [FLUOCINOLONE ACETONIDE]	> 30 µM
CCCCC(CC)CN1CN(CC(CC)CCCC)CC(C)(N)C1 (centres undefined)	> 30 µM
CC(O)(CS(=O)(=O)c1ccc(F)cc1)C(=O)Nc1ccc(C#N)c(C(F)(F)F)c1 (centres undefined) [BICALUTAMIDE]	> 3 µM
CC(=O)O[C@]1(C(C)=O)CC[C@H]2[C@@H]3C=C(Cl)C4=CC(=O)[C@@H]5C[C@@H]5[C@]4(C)[C@H]3CC[C@@]21C [CYPROTERONE ACETATE]	> 3 µM
C=C1CC[C@H](O)C/C1=C/C=C1\CCC[C@]2(C)[C@@H]([C@H](C)CCCC(C)C)CC[C@@H]12	> 30 µM
COc1cc(C)c2c(Oc3cccc(C(F)(F)F)c3)c(OC)cc(NC(C)CCCN)c2n1 (centres undefined)	> 3 µM
COc1ccc2[nH]c([S+]([O-])Cc3ncc(C)c(OC)c3C)nc2c1 (centres undefined)	> 30 µM
COC(=O)[C@@H](N)Cc1ccc(O)c(O)c1	> 30 µM
CN(C)c1ccc(O)c2c1C[C@H]1C[C@H]3[C@H](N(C)C)C(O)=C(C(N)=O)C(=O)[C@@]3(O)C(O)=C1C2=O	> 30 µM
CCC1=C[C@@H]2CN(C1)Cc1c([nH]c3ccccc13)[C@@](C(=O)OC)(c1cc3c(cc1OC)N(C)[C@H]1[C@@](O)(C(=O)OC)[C@H](OC(C)=O)[C@]4(CC)C=CCN5CC[C@]31[C@@H]54)C2	> 30 µM
CCNC(=O)/C=C(C)/C=C/C=C(C)/C=C/c1c(C)cc(OC)c(C)c1C [MOTRETINIDE]	> 30 µM
O=C(O)c1ccccc1	> 30 µM
COc1cc(C(C)=O)ccc1OCCCN1CCC(c2noc3cc(F)ccc23)CC1	0.003 µM
CCCSc1nc(N[C@@H]2C[C@H]2c2ccc(F)c(F)c2)c2nnn([C@@H]3C[C@H](OCCO)[C@@H](O)[C@H]3O)c2n1	> 10 µM
